# Test summary: recombinant barcode read abundance after kanamycin selection (control-corrected) (log10(CPM+1)); higher = more efficient recombination; sequences stand for … in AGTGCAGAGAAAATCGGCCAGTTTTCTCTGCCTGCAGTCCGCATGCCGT…ATTTATGCAGCGGACTGCCTTTCTCCCAAAGTGATAAACCGGACAGTATCATGGACCGGTTTTCCCGGTAATCCGTATTTGCAAGGTTGGTTTCACT; site = the 11-nt target
Each entry below lists one item and its recorded recombinant barcode read abundance (log10) value.
// keep it numeric: no unit symbol after the value

Previously resolved entries follow.
TAAGAATCTTGGGTTCTAACCTGTTGCCTCA [TAAGAATCTAG_LTGcore_CT_RTGcore_TG] (site TAAGAATCTAG) (LTG core: CT, RTG core: TG)    0.343
TGATACCCTTGGGTTCTAACCTGTTGCGTAG [TGATACCCTAC_LTGcore_CT_RTGcore_CT] (site TGATACCCTAC) (LTG core: CT, RTG core: CT)    2.73
TTATAAACGTGGGTTCTAACCTGTTGCCTCG [TTATAAACTAG_LTGcore_CG_RTGcore_CG] (site TTATAAACTAG) (LTG core: CG, RTG core: CG)    0.193
GCGCGACCTTGGGTTCTAACCTGTTGCTTAG [GCGCGACCTAA_LTGcore_CT_RTGcore_CT] (site GCGCGACCTAA) (LTG core: CT, RTG core: CT)    0.515

Field: next sequence
query: Given AGGCCTCTATGGGTTCTAACCTGTTGCCTAG [AGGCCTCCTAG_LTGcore_TA_RTGcore_CT] (site AGGCCTCCTAG) (LTG core: TA, RTG core: CT) , respond with its recombinant barcode read abundance (log10).
result: 0.0484

----------
# Test summary: recombinant UMI read abundance after kanamycin selection (control-corrected) (log10(CPM+1)); higher = more efficient recombination; extreme values may be limits of the assay; sequences stand for … in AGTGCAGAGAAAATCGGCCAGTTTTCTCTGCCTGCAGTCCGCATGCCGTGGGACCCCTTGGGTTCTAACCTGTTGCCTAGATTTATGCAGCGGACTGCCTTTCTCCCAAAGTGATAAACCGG…AGGTTGGTTTCACT; site = the 11-nt donor
Measure: recombinant UMI read abundance (log10)
// keep it numeric: no unit symbol after the value

Previously resolved entries follow.
GCGGTTCCATGGACCGGTTTTCCCGGTAATCCGTATTTGTC (site GCGGTTCCTGA)    0
GAATACACATGGACCGGTTTTCCCGGTAATCCGTATTTGCG (site GAATACACTCG)    2.66
ACTAGACCATGGACCGGTTTTCCCGGTAATCCGTATTTGAG (site ACTAGACCTCT)    0.0176

query: Given ATTGAGTCATGGACCGGTTTTCCCGGTAATCCGTATTTGGT (site ATTGAGGCTAC) , respond with its recombinant UMI read abundance (log10).
result: 0

query: Given ACTAGTGCATGGACCGGTTTTCCCGGTAATCCGTATTTGGT (site ACGAGTGCTAC) , respond with its recombinant UMI read abundance (log10).
result: 0.586

----------
Each entry below lists one item and its recorded recombinant barcode read abundance (log10) value.
# Test summary: recombinant barcode read abundance after kanamycin selection (control-corrected) (log10(CPM+1)); higher = more efficient recombination; sequences stand for … in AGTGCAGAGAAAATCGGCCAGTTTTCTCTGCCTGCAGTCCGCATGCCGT…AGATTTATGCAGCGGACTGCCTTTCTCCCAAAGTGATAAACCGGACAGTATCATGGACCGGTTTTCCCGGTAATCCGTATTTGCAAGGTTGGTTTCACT; site = the 11-nt target
// keep it numeric: no unit symbol after the value

Previously resolved entries follow.
TTCACGGCTTGGGTTCTAACCTGTTGCCT (site TTCACGGCTAG)    0.0164
CTCGGATCTTGGGTTCTAACCTGTTGCCA (site CTCGGATCTTG)    0.0484
CAAAGTGCTTGGGTTCTAACCTGTTGCCT (site GAAAGTGCTAG)    0.205
TAGCTGACTTGGGTTCTAACCTGTTGCCT (site TAGCGGACTAG)    0.194
CGCTTACCTTGGGTTCTAACCTGTTGCCT (site TGCTTACCTAG)    0.192

query: Given GAGGTCACTTGGGTTCTAACCTGTTGCTA (site TCTCCTCCTAT) , respond with its recombinant barcode read abundance (log10).
result: 0.186

query: Given ACCTACGCTTGGGTTCTAACCTGTTGCCT (site ACCTACGCTAG) , respond with its recombinant barcode read abundance (log10).
result: 1.01

query: Given GGTGCTCCTTGGGTTCTAACCTGTTGCAG (site GGTGCTCCTCT) , respond with its recombinant barcode read abundance (log10).
result: 0.88

query: Given GTATGACCTTGGGTTCTAACCTGTTGCCT (site GTATGACCTAG) , respond with its recombinant barcode read abundance (log10).
result: 1.86

query: Given CTCTATACTTGGGTTCTAACCTGTTGCCA (site CTCTAAACTTG) , respond with its recombinant barcode read abundance (log10).
result: 0.0863
